Test system: Liver microsomes
measurement_notes: Intrinsic clearance in human liver microsomes at 1 uM
Type: ADME, Microsome
parameter_measured: intrinsic clearance (CLint) (mL/min/mg)
Numbers only, in mL/min/mg.

Some compounds with known intrinsic clearance (CLint) results, for comparison:
>  <smiles>
COC(=O)c1cc(N)c(Nc2ccc(C#N)cc2)cc1Oc1c(C)cc(CCC#N)cc1C

>  <intrinsic clearance (CLint) / mL/min/mg>
0.04

$$$$
>  <smiles>
CNC(=O)c1cc(N)c(Nc2ccc(C#N)cc2)cc1Oc1c(C)cc(/C=C/C#N)cc1C

>  <intrinsic clearance (CLint) / mL/min/mg>
0.15

$$$$

response.value for `COC(=O)c1cc(N)c(Nc2ccc(C#N)cc2)cc1Oc1c(C)cc(/C=C/C#N)cc1C` (field: intrinsic clearance (CLint)) = 0.02

====

Hi there, I'd appreciate the recorded pEC50 for every entry that follows.
System: Human immunodeficiency virus 1
measurement_notes: Antiviral activity against HIV-1 harboring reverse transcriptase K101E mutant infected in human TZM-bl cells assessed as inhibition of viral replication after 2 days by luciferase reporter gene based luminescence assay
Format: functional, organism-based
condition_details: Human immunodeficiency virus 1, TZM-bl, 48 h
Give bare numbers, as −log10 of the molar value.

Some compounds with known pEC50 results, for comparison:
>  <smiles>
COC(=O)c1cc(N)c(Nc2ccc(C#N)cc2)cc1Oc1c(C)cc(CCC#N)cc1C

>  <pEC50>
7.85

$$$$
>  <smiles>
CNC(=O)c1cc(N)c(Nc2ccc(C#N)cc2)cc1Oc1c(C)cc(CCC#N)cc1C

>  <pEC50>
7.85

$$$$
>  <smiles>
Cc1cc(/C=C/C#N)cc(C)c1Oc1cc(Nc2ccc(C#N)cc2)c(N)cc1C(N)=O

>  <pEC50>
8.08

$$$$
>  <smiles>
Cc1cc(/C=C/C#N)cc(C)c1Oc1cc(Nc2ccc(C#N)cc2)c(N)cc1CO

>  <pEC50>
8.47

$$$$

response.value for `Cc1cc(CCC#N)cc(C)c1Oc1cc(Nc2ccc(C#N)cc2)c(N)cc1CO` (field: pEC50) = 8.47

====

Test system: Liver microsomes
measurement_notes: Half life in human liver microsomes at 1 uM
Assay type: ADME, Microsome
parameter_measured: log10 t1/2 (log10 of the value in min)
The common logarithm of t1/2 in min is what is listed.

Some molecules with known log10 t1/2 results, for comparison:
>  <smiles>
COC(=O)c1cc(N)c(Nc2ccc(C#N)cc2)cc1Oc1c(C)cc(/C=C/C#N)cc1C

>  <tested_target>
Liver microsomes

>  <log10 t1/2>
2.45

$$$$
>  <smiles>
Cc1cc(CCC#N)cc(C)c1Oc1cc(Nc2ccc(C#N)cc2)c(N)cc1CO

>  <tested_target>
Liver microsomes

>  <log10 t1/2>
1.32

$$$$
>  <smiles>
COC(=O)c1cc(N)c(Nc2ccc(C#N)cc2)cc1Oc1c(C)cc(CCC#N)cc1C

>  <tested_target>
Liver microsomes

>  <log10 t1/2>
2.27

$$$$

List log10 t1/2 for every entry below, keeping the order given.
1. Cc1cc(CCC#N)cc(C)c1Oc1cc(Nc2ccc(C#N)cc2)c(N)cc1C(N)=O
2. Cc1cc(CCC#N)cc(C)c1Oc1cc(Nc2ccc(C#N)cc2)c(N)cc1C(F)(F)F

Response given:
1. 1.62
2. 1.75

====

measurement_notes: Selectivity index, ratio of CC50 for human TZM-bl cells to EC50 for HIV-1NL4-3
Assay type: toxicity, cell-based
condition_details: read-out: Ratio CC50/EC50
Hi there, I'd appreciate the recorded selectivity ratio for every entry that follows.

>  <smiles>
Cc1cc(/C=C/C#N)cc(C)c1Oc1cc(Nc2ccc(C#N)cc2)c(N)cc1C(N)=O

>  <observed_measurement>
> 27100

$$$$
>  <smiles>
Cc1cc(CCC#N)cc(C)c1Oc1cc(Nc2ccc(C#N)cc2)c(N)cc1C(=O)NN

>  <observed_measurement>
> 1190

$$$$
>  <smiles>
Cc1cc(CCC#N)cc(C)c1Oc1cc(Nc2ccc(C#N)cc2)c(N)cc1CO

>  <observed_measurement>
> 61000

$$$$
>  <smiles>
Cc1cc(CCC#N)cc(C)c1Oc1cc(Nc2ccc(C#N)cc2)c(N)cc1N

>  <observed_measurement>
> 3420

$$$$
>  <smiles>
COC(=O)c1cc(N)c(Nc2ccc(C#N)cc2)cc1Oc1c(C)cc(CCC#N)cc1C

>  <observed_measurement>
> 5260

$$$$

List selectivity ratio for every entry below, keeping the order given.
1. Cc1cc(/C=C/C#N)cc(C)c1Oc1cc(Nc2ccc(C#N)cc2)c(N)cc1S(N)(=O)=O
2. CNC(=O)c1cc(N)c(Nc2ccc(C#N)cc2)cc1Oc1c(C)cc(/C=C/C#N)cc1C
3. COC(=O)c1cc(N)c(Nc2ccc(C#N)cc2)cc1Oc1c(C)cc(/C=C/C#N)cc1C
4. CNC(=O)c1cc(N)c(Nc2ccc(C#N)cc2)cc1Oc1c(C)cc(CCC#N)cc1C
5. Cc1cc(CCC#N)cc(C)c1Oc1cc(Nc2ccc(C#N)cc2)c(N)cc1C(N)=O

Response given:
1. > 233
2. > 1610
3. > 8320
4. > 3330
5. > 6760

response.value for `CC(=O)/C=C/c1cc(C)c(Oc2cc(Nc3ccc(C#N)cc3)c(N)cc2C(F)(F)F)c(C)c1` (field: selectivity ratio) = > 789
